target: HIV-1 Env of pseudovirus isolate MGRM-G-006 (subtype G) (HIV-1); test: cell-based or functional assay
value-kind: IC50

Requested read-out: IC50. Entry: PGT-131 (antibody, V domains shown) VH: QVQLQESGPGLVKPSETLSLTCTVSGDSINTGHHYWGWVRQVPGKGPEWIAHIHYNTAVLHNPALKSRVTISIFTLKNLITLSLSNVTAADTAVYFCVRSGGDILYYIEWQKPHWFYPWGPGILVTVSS VL: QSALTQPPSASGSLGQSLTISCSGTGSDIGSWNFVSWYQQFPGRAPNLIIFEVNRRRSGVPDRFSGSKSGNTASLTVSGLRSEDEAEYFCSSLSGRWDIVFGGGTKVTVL
> 50 µg/mL

Tell me the measured IC50 of PGT-130 (antibody, V domains shown) VH: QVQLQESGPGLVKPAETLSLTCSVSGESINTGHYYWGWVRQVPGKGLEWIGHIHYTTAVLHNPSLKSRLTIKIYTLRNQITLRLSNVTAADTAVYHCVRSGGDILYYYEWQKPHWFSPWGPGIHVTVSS VL: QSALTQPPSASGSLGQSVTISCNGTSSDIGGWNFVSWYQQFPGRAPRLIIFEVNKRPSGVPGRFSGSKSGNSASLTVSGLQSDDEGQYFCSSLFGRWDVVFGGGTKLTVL , please.
> 50 µg/mL

Data request, read-out IC50, for PGT-135 (antibody, V domains shown) VH: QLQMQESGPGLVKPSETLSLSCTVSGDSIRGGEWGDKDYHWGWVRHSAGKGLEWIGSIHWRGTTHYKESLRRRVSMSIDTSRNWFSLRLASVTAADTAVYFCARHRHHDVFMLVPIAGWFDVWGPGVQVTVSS VL: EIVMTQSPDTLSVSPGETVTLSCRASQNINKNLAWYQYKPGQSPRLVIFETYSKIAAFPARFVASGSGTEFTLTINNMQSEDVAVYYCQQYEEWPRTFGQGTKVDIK
> 50 µg/mL
